Recorded Papp A→B at 1 h, 10 μM for the following compounds
- PROCEDURE_SUMMARY: Unidirectional Caco-2 cell permeability assay
- Type: in vitro ADME
- APPLIED_CONDITIONS: human, Caco-2, 10 μM, apical pH 6.5, basolateral pH 7.4, 1 hour, 37° C., n=2

{"COMPOUND": "Cc1cc(S(N)(=O)=O)ccc1-c1cccc(C(O)CCN2CCC(=O)N2CCc2ccc(C(=O)O)c(O)c2)c1 (single isomer, unassigned) [6; isomer 1]", "Papp A→B at 1 h, 10 μM": "< 0.1 ×10⁻⁶ cm/s"}

Consider Cc1cc(O)ccc1-c1cccc(C(O)CCN2CCC(=O)N2CCc2ccc(C(=O)O)cc2)c1 (single isomer, unassigned) [1; isomer 1] . Its measured Papp A→B at 1 h, 10 μM is 0.86 ×10⁻⁶ cm/s

Lab note: measured Papp A→B at 1 h, 10 μM of Cc1cc(S(N)(=O)=O)ccc1-c1cccc(C(O)CCN2CCC(=O)N2CCc2cc(F)c(C(=O)O)c(F)c2)c1 (single isomer, unassigned) [8; isomer 2] was < 0.3 ×10⁻⁶ cm/s
